pIC50: recorded values
molecular target: EGFR WT (Homo sapiens); assay: BaF3 cell proliferation assay, EGFR WT (Table A); format: cell-based; details: potency code, 3 days, CellTiterGlo, read-out: EGFR WT (Activity for Inhibiting EGFR)
Sequence (P00533 25-1210 N540K): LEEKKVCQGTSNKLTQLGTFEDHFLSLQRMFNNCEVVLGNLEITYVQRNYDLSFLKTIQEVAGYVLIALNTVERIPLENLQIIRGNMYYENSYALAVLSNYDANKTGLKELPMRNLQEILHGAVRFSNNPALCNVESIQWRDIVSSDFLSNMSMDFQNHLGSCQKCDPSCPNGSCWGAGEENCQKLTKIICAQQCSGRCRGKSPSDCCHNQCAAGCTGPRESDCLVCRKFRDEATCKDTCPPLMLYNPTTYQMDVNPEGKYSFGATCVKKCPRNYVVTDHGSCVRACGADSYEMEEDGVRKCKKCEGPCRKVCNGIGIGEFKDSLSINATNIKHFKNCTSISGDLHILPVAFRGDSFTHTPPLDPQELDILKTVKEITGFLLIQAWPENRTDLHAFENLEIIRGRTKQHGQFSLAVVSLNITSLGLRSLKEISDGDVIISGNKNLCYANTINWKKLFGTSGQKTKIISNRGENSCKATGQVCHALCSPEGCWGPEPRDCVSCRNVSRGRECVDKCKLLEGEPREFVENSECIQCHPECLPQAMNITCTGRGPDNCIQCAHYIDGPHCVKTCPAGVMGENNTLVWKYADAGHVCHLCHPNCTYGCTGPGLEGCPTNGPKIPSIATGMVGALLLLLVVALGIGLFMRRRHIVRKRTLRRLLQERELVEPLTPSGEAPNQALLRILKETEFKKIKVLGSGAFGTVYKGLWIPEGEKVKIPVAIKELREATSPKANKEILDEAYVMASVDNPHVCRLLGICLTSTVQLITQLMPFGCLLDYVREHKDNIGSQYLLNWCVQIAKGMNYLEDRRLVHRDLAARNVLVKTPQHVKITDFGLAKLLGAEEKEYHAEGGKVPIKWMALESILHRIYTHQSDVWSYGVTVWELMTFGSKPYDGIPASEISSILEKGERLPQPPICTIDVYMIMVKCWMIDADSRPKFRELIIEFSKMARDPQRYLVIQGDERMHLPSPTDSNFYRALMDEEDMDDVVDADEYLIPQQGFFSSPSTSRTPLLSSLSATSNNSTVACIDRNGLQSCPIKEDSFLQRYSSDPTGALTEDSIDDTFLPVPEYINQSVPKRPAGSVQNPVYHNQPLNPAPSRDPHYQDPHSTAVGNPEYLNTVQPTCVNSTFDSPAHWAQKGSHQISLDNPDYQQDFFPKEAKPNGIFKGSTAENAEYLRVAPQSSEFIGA
pIC50: −log10 of the molar value.

| compound | pIC50 |
| --- | --- |
| C=CC(=O)Nc1cc2c(Nc3ccc(OCc4ccccn4)c(Cl)c3)ncnc2cc1OCCN1CCC(O)C1 (stereo not drawn) [compound 30] | 6.30 to 6.52 |
| CC#CC(=O)Nc1cc2c(Nc3ccc(OCc4ncccn4)c(Cl)c3)ncnc2cc1OCCCN1CCOCC1 [compound 168] | 6.52 to 6.70 |
| C=CC(=O)Nc1cc2c(Nc3ccc(Oc4ccc(C)nc4)c(C)c3)ncnc2cc1C#CC(C)(C)N(C)C [compound 82] | 6.00 to 6.30 |
| C=CC(=O)Nc1cc2c(Nc3ccc(OCc4ccccn4)c(Cl)c3)ncnc2cc1OCCCN1CCOCC1 [compound 21] | 6.00 to 6.30 |
| CC#CC(=O)Nc1cc2c(Nc3ccc(OCc4ccccn4)c(Cl)c3)ncnc2cc1C#CC(C)(C)N1CCN(C)CC1 [compound 89] | 7.00 to 7.30 |
| C=CC(=O)Nc1cc2c(Nc3ccc(Oc4ccc(C)nc4)c(C)c3)ncnc2cc1OCCN1CCOCC1 [compound 73] | 6.00 to 6.30 |
| C=CC(=O)Nc1cc2c(Nc3ccc(Oc4ccc(C)nc4)c(C)c3)ncnc2cc1C#C[C@@H]1[C@H]2CN(C)C[C@@H]12 [compound 104] | 7.52 to 7.70 |
| C=CC(=O)Nc1cc2c(Nc3ccc(OCc4ccccn4)c(Cl)c3)ncnc2cc1OCCn1ccnc1 [compound 10] | < 6.00 |
| C=CC(=O)Nc1cc2c(Nc3ccc(OCc4ccccn4)c(Cl)c3)ncnc2cc1N1CC(N2CCOCC2)C1 [compound 44] | 6.30 to 6.52 |
| C=CC(=O)Nc1cc2c(Nc3ccc(OCc4ncccn4)c(Cl)c3)ncnc2cc1OCCCN1CCOCC1 [compound 166] | < 6.00 |
| C=CC(=O)Nc1cc2c(Nc3ccc(OCc4cccc(OC(F)(F)F)n4)c(Cl)c3)ncnc2cc1OCCN1CCOCC1 [compound 24] | < 6.00 |
| CC#CC(=O)Nc1cc2c(Nc3cc(Cl)c(OCc4cccc(F)c4)cc3F)ncnc2cc1OCCCN1CC(OC)C1 [compound 136] | 6.70 to 7.00 |
